# Target Under Test: T1, PUF4 RNA-binding domain (Saccharomyces cerevisiae, UniProt P25339 537-888)
# T1 sequence: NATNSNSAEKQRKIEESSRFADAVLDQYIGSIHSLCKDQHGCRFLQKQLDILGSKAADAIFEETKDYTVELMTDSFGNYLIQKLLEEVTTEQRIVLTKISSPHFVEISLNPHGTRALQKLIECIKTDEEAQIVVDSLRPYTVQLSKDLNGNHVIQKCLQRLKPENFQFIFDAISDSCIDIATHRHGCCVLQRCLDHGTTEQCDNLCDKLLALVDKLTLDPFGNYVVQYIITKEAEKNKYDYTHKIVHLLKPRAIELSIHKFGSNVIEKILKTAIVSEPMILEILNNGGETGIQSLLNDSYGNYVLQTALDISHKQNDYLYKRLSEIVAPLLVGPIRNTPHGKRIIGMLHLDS
# Assay Overview: Mg; RNA-MaP; 20 mM Na-HEPES pH 7.4, 30 mM KOAc, 0.75 mM MgCl2, 0.1% Tween-20, 5% glycerol, 0.1 mg/mL BSA, 2 mM DTT; 25 C; 0.0125-409.6 nM protein
# Test Conditions: tags: N-His6-TEV cleaved; C-SNAP kept, Cy3B-labelled; label: tethered on chip by stalled RNA polymerase
Recorded measurements of pKd, one per entry
Note on units: pKd is unitless, being -log10 of a concentration expressed in mol/L.

Consider the reported pKd for these binders:
Ic_S4_P4E.1_K4.1_C4.1_H4.1_A4.1_[T5A]_[A6C]_[T7C]_F4.1_T4.1 (ssRNA) RNA: UUUGACAACUGAUCGUUCUUUCUUGUAACCUAUUCUUUCUCGAUCAGUUGUCUUU: 8.24
UCUCUUUGUACUCUUUUCUCUU (ssRNA) [Ic_S1_P5E.1_K5.1_C5.1_H5.1_A5.1_[T5C]_[A7C]_F5.1_[A10T]_T5.1]: 7.64
UCUCUUUGUAUAUAUUAAGUCUCUU (ssRNA) [Id_ii_S1_P4E.3_K4.2_C4.2_[C-2T]_[T-1G]_H4.2_A4.1_F4.1_T4.2_[G10A]_[T11G]]: 8.07
Ib_S2_P4E.1_K4.1_C4.1_H4.1_A4.1_[A6T]_F4.1_[A9C]_T4.1 (ssRNA) RNA: UUUGAUUAAUAUGAUAUCGUUCUUUCUUGUAUUUUCUUCUUUCUCGAUAUCAUAUUAAUCUUU: 7.69

Proceed to the following item.
GET /values?readout=pKd&item= UCUCUUUGUUUCUUAUCUCUU (ssRNA) [Ib_S1_P4E.1_K4.1_C4.1_H4.1_[A4T]_A4.1_[A6C]_F4.1_T4.1]
6.43
